Biological target: T1, Tetrahymena thermophila MTA1 (TthMTA1), untagged
T1 chain: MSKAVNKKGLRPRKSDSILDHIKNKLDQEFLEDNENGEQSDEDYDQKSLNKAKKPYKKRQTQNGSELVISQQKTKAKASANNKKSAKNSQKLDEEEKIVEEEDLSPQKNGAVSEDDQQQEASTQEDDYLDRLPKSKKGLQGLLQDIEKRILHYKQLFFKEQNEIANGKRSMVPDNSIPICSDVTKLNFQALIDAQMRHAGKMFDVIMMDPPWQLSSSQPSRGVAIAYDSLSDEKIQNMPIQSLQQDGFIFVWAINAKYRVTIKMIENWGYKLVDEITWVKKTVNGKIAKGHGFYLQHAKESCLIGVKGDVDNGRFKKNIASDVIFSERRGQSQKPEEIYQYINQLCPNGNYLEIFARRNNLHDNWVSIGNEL
Experiment: GST pull-down
Conditions: chain shown with the change;; parent: 100
readout: percent of parent (%)
Numbers only, in %.

(Q) Specify percent of parent for His6GST-Tthp1 L167A; L170A (protein) MSLKKGKFQHNQSKSLWNYTLSPGWREEEVKILKSALQLFGIGKWKKIMESGCLPGKSIGQIYMQTQRLLGQQSLGDFMGLQIDLEAVFNQNMKKQDVLRKNNCIINTGDNPTKEERKRRIEQNRKIYGLSAKQIAEIKLPKVKKHAPQYMTLEDIENEKFTNLEIATHAYNLKAEIVRRLAEQGETIAQPSIIKSLNNLNHNLEQNQNSNSSTETKVTLEQSGKKKYKVLAIEETELQNGPIATNSQKKSINGKRKNNRKINSDSEGNEEDISLEDIDSQESEINSEEIVEDDEEDEQIEEPSKIKKRKKNPEQESEEDDIEEDQEEDELVVNEEEIFEDDDDDEDNQDSSEDDDDDED and stop.
(A) 0

Measured values drawn from paper PMC9174199 for this set.
